Several publications report IC50 on Chymotrypsinogen A (Bos taurus); those values are gathered here.

Some entries whose results are on file:
INSERT INTO assay_data (molecule, result_type, assay_value) VALUES
  ('O=C(O)c1ccc(S(=O)(=O)N2C(=O)CN(c3ccccc3)C2=O)cc1', 'IC50', '44 µM'),
  ('Cc1ccccc1CCC(=O)N[C@@H](Cc1ccccc1)C(=O)CCl', 'IC50', '12 µM'),
  ('O=C(O)c1cccc(S(=O)(=O)N2C(=O)CN(c3ccccc3)C2=O)c1', 'IC50', '8.5 µM'),
  ('COC(=O)c1ccc(S(=O)(=O)N2C(=O)CN(c3ccccc3)C2=O)cc1', 'IC50', '1.8 µM'),
  ('COc1ccc(S(=O)(=O)N2C(=O)CN(c3ccc(C)c(C)c3)C2=O)cc1OC', 'IC50', '> 100 µM'),
  ('O=C1CN(c2ccccc2)C(=O)N1S(=O)(=O)Cc1ccccc1', 'IC50', '37 µM');

The recorded IC50 for `Cc1ccccc1S(=O)(=O)N1C(=O)CN(c2ccccc2)C1=O` is 1.1 µM

The value of IC50 measured for the molecule `COc1ccc(S(=O)(=O)N2C(=O)CN(c3ccccc3)C2=O)cc1OC` turned out to be > 100 µM

Value of measured IC50 for the entry `O=C(CCc1cccc(Cl)c1)N[C@@H](Cc1ccccc1)C(=O)CCl` : 23 µM

`O=C1CN(c2ccccc2)C(=O)N1S(=O)(=O)c1ccccc1` has a reported IC50 of 1.4 µM

IC50 measured on `CC(C)[C@@H]1C(=O)N(S(C)(=O)=O)[C@@H]2CCN(C(=O)C3CN(CC(C)(C)C)C3)[C@H]21.Cl` = 31 µM

====

Literature IC50 values, system: Chymotrypsinogen A (Bos taurus).

Worked examples follow.
INSERT INTO measurements (compound, target_desc, assay_value) VALUES
  ('CCOC(=O)[C@H](Cc1ccccc1)NC(=O)C(C)(C)C(CCc1ccccc1)NC(=O)c1ccc(C#N)cc1 (stereo partly drawn)', 'Chymotrypsinogen A (Bos taurus)', '0.25 µM'),
  ('CC(NC(=O)[C@H](CC(=O)N(C)C)NC(=O)[C@@H](NC(=O)CC(C)(C)C)C(C)(C)C)C(=O)C(=O)NCc1ccccc1 (stereo partly drawn)', 'Chymotrypsinogen A (Bos taurus)', '> 300 µM');

Record `Cc1ccc(N2CC(=O)N(S(=O)(=O)c3ccc(C)c(C)c3)C2=O)cc1C` . Reported IC50: > 100 µM

The compound listed as `O=C1CN(c2cccc(Cl)c2)C(=O)N1S(=O)(=O)c1ccc(Cl)cc1` has a reported IC50 of 0.2 µM

For reference, reported IC50 for `CCC[C@H](NC(=O)[C@@H]1[C@H]2CCC[C@H]2CN1C(=O)[C@@H](NC(=O)[C@@H](NC(=O)c1cnccn1)C(C)C)C(C)(C)C)C(=O)C(=O)NC1CC1` stands at > 100 µM

====

Ok so here's the combined literature set: IC50 for Chymotrypsinogen A (Bos taurus, UniProt P00766).

INSERT INTO results (compound, target_desc, result_type, assay_value) VALUES
  ('O=C1CN(c2ccccc2)C(=O)N1C(=O)c1ccc(Cl)cc1', 'Chymotrypsinogen A (Bos taurus, UniProt P00766)', 'IC50', '0.23 µM'),
  ('CCC[C@H](NC(=O)[C@@H]1[C@H]2CCC[C@H]2CN1C(=O)[C@@H](NC(=O)[C@@H](NC(=O)c1cnccn1)C(C)C)C(C)(C)C)C(=O)C(=O)NC(C)CC (stereo not given in full)', 'Chymotrypsinogen A (Bos taurus, UniProt P00766)', 'IC50', '> 100 µM'),
  ('OB(O)c1cc2ccccc2s1', 'Chymotrypsinogen A (Bos taurus, UniProt P00766)', 'IC50', '5 µM');

# IC50 measured on Chymotrypsinogen A (Bos taurus, UniProt P00766) for item CCCCCCC(NC(=O)c1ccco1)C(C)(C)C(=O)N[C@@H](Cc1ccccc1)C(=O)OCC (stereo not given in full) = 12 µM

Record `O=C1C[C@H](Cc2ccccc2)N1C(=O)NCc1ccncc1` / Chymotrypsinogen A (Bos taurus, UniProt P00766), IC50 recorded as > 75 µM

====

Kindly find below IC50 information for UniProt:P00766 taken from the literature.
Entry rule: numbers only, all in µM.

Please review the entries below; each comes with its answer.
INSERT INTO assay_data (compound, assay_value) VALUES
  ('OB(O)c1cc2ccccc2o1', 14),
  ('C=CC[C@@H]1C(=O)N(C(=O)NCc2ccncc2)[C@H]1Cc1ccccc1', 6),
  ('O=C(N[C@@H](Cc1ccccc1)C(=O)CCl)OCc1ccccc1', 17);

Param item: `CCc1ccc(CCC(=O)N[C@@H](Cc2ccccc2)C(=O)CCl)cc1` ; param system: UniProt:P00766; output IC50: 37

The compound `O=C(CCc1cccc(O)c1)N[C@@H](Cc1ccccc1)C(=O)CCl` , tested on UniProt:P00766, showed IC50 of 5.2

====

Please find below IC50 measurements for Chymotrypsinogen A (Bos taurus, UniProt P00766), combined from several publications.
Reply with just the number (in µM).

Known results for compounds:
INSERT INTO measurements (compound, result_type, assay_value) VALUES
  ('COC(=O)Cc1ccc(S(=O)(=O)N2C(=O)CN(c3ccccc3)C2=O)cc1', 'IC50', 11),
  ('Cc1ccc(N2CC(=O)N(S(=O)(=O)c3ccc(Cl)cc3)C2=O)cc1C', 'IC50', 43),
  ('COc1ccc(CCC(=O)N[C@@H](Cc2ccccc2)C(=O)CCl)cc1OC', 'IC50', 51);

Lab note: compound CCCCCCCCCCCCC(NC(=O)c1ccc(C#N)cc1)C(C)(C)C(=O)N[C@@H](Cc1ccccc1)C(=O)OCC (some centres not stated) tested on Chymotrypsinogen A (Bos taurus, UniProt P00766); recorded IC50 was 4.2

Known value: Chymotrypsinogen A (Bos taurus, UniProt P00766) IC50 of the compound `O=C1CN(c2ccccc2Oc2ccccc2)C(=O)N1S(=O)(=O)c1ccc(Cl)cc1` equals 37

====

IC50 values for UniProt:P00766 compiled from several publications are listed below.

Illustrative cases are given below, each with its answer.
INSERT INTO assay_data (molecule, target_desc, assay_value) VALUES
  ('CN1CCN(C(=O)c2ccc(N3CC(=O)N(S(=O)(=O)c4ccc(Cl)cc4)C3=O)cc2)CC1', 'UniProt:P00766', '> 100 µM'),
  ('COc1cccc(CCC(=O)N[C@@H](Cc2ccccc2)C(=O)CCl)c1OC', 'UniProt:P00766', '2.2 µM'),
  ('CCC[C@@H]1NC(=O)[C@@H](N2C(=O)N[C@@H](C)C2=O)CNC(=O)[C@H](CS(=O)(=O)O)NC(=O)/C=C/c2csc(n2)[C@H](Cc2ccc(O)cc2)NC(=O)C(=O)[C@H]([C@@H](C)CC)NC1=O', 'UniProt:P00766', '2.5 µM'),
  ('CN(C)C(=O)C[C@H](NC(=O)[C@@H](NC(=O)CC(C)(C)C)C(C)(C)C)C(=O)N[C@H]1CN(OCc2ccccc2)C1=O', 'UniProt:P00766', '> 75 µM'),
  ('CCCCCCC(NC(=O)c1ccccc1)C(C)(C)C(=O)N[C@@H](Cc1ccccc1)C(=O)OCC (some centres not stated)', 'UniProt:P00766', '17 µM');

For `O=C(CCc1ccc(F)cc1)N[C@@H](Cc1ccccc1)C(=O)CCl` the molecule record lists IC50 as 100 µM

Looking up `CS[C@@H]1C(=O)N(C(=O)NCc2ccncc2)[C@H]1Cc1ccccc1` , I see its IC50 listed as 2.2 µM

Entry `O=C(O)c1cccc(N2CC(=O)N(S(=O)(=O)c3ccc(Cl)cc3)C2=O)c1` ; IC50 = > 100 µM

====

Collected set of IC50 measured with Chymotrypsinogen A (Bos taurus) across studies.
The figure you give is taken to be in µM; do not add the unit.

Lookup result for `O=C1CN(c2ncccn2)C(=O)N1S(=O)(=O)c1ccc(Cl)cc1` ; measured IC50: 52

IC50 recorded for this compound, `CC[C@@H]1NC(=O)[C@@H](N2C(=O)N[C@@H](C)C2=O)CNC(=O)[C@H](CS(=O)(=O)O)NC(=O)/C=C/c2csc(n2)[C@H](Cc2ccc(O)cc2)NC(=O)C(=O)[C@H]([C@@H](C)CC)NC1=O` , is 2.7

Entry `COC(=O)c1cccc(S(=O)(=O)N2C(=O)CN(c3ccccc3)C2=O)c1` — recorded IC50 = 1.7

Kindly note the recorded IC50 for `O=C(O)c1ccccc1N1CC(=O)N(S(=O)(=O)c2ccc(Cl)cc2)C1=O` , which is 73

Field IC50 (entry CCCCCCC(NC(=O)c1ccc(C#N)cc1)C(C)(C)C(=O)N[C@@H](Cc1ccccc1)C(=O)OCc1ccccc1 (some centres undefined) ) reads 230

Noted for `O=C1CN(c2ccccc2)C(=O)N1S(=O)(=O)c1ccc(Br)cc1` : its IC50 reads 2.4

Kindly note the recorded IC50 for CC(C)(C(=O)OC(=O)C(C)(C)C(CCc1ccccc1)NC(=O)c1ccc(C#N)cc1)C(CCc1ccccc1)NC(=O)c1ccc(C#N)cc1 (centres undefined) , which is 0.0021
